# measurement-notes: Stability in RPMI-1640 medium containing 10% heat inactivated fetal calf serum at pH 7.6 assessed as hydrolysis half life
# Format: physicochemical
# conditions-used: cattle, RPMI-1640 medium with 10% heat-inactivated fetal calf serum
Please go through the items and note down their half-life.
Provide the reading as a plain figure in h.

Find the recorded half-life belonging to Cc1cn([C@H]2C=C[C@@H](COP3(=O)OCc4cc(C=O)cc(C(C)(C)C)c4O3)O2)c(=O)[nH]c1=O (some centres not stated) and report it. 1.5

What about this molecule? CC(=O)OC(OC(C)=O)c1cc2c(c(C(C)(C)C)c1)OP(=O)(OC[C@@H]1C=C[C@H](n3cc(C)c(=O)[nH]c3=O)O1)OC2 (some centres not stated) 2.8

What about this molecule? Cc1cc(C=O)cc2c1OP(=O)(OC[C@@H]1C=C[C@H](n3cc(C)c(=O)[nH]c3=O)O1)OC2 (some centres not stated) 0.7

What about this molecule? Cc1cn([C@H]2C=C[C@@H](COP3(=O)OCc4cc(C(OC(=O)C(C)C)OC(=O)C(C)C)cc(C(C)(C)C)c4O3)O2)c(=O)[nH]c1=O (some centres not stated) 5.9

What about this molecule? `CC(=O)OC(OC(C)=O)c1cc2c(c(C(C)(C)C)c1)O[P@@](=O)(OC[C@@H]1C=C[C@H](n3cc(C)c(=O)[nH]c3=O)O1)OC2` 2.8

What about this molecule? `Cc1cn([C@H]2C=C[C@@H](CO[P@]3(=O)OCc4cc(C(OC(=O)C(C)C)OC(=O)C(C)C)cc(C(C)(C)C)c4O3)O2)c(=O)[nH]c1=O` 5.7

What about this molecule? Cc1cc(C(OC(=O)C(C)C)OC(=O)C(C)C)cc2c1OP(=O)(OC[C@@H]1C=C[C@H](n3cc(C)c(=O)[nH]c3=O)O1)OC2 (some centres not stated) 1.6

----------
# measurement-notes: Cytostatic activity against human wild type CEM/0 cellss
# Assay type: cell-based, CCRF-CEM
# conditions-used: wild-type CEM/0 cells
endpoint: CC50 (µM)
Provide the reading as a plain figure in µM.

Find the recorded CC50 belonging to CC(=O)OC(OC(C)=O)c1cc(C(C)(C)C)cc2c1OP(=O)(OC[C@@H]1C=C[C@H](n3cc(C)c(=O)[nH]c3=O)O1)OC2 (stereo not given in full) and report it. 7.9

What about this compound? Cc1cn([C@H]2C=C[C@@H](COP3(=O)OCc4cc(C=O)cc(C(C)(C)C)c4O3)O2)c(=O)[nH]c1=O (stereo not given in full) 33

What about this compound? CC(=O)OC(OC(C)=O)c1cc(C)cc2c1OP(=O)(OC[C@@H]1C=C[C@H](n3cc(C)c(=O)[nH]c3=O)O1)OC2 (stereo not given in full) 19

What about this compound? CC(=O)OC(OC(C)=O)c1cc2c(c(C(C)(C)C)c1)OP(=O)(OC[C@@H]1C=C[C@H](n3cc(C)c(=O)[nH]c3=O)O1)OC2 (stereo not given in full) 19

What about this compound? Cc1cc(C=O)c2c(c1)COP(=O)(OC[C@@H]1C=C[C@H](n3cc(C)c(=O)[nH]c3=O)O1)O2 (stereo not given in full) 29

What about this compound? Cc1cn([C@H]2C=C[C@@H](COP3(=O)OCc4cc(C(C)(C)C)cc(C=O)c4O3)O2)c(=O)[nH]c1=O (stereo not given in full) 8.8

What about this compound? `CC(=O)OC(OC(C)=O)c1cc2c(c(C(C)(C)C)c1)O[P@@](=O)(OC[C@@H]1C=C[C@H](n3cc(C)c(=O)[nH]c3=O)O1)OC2` 51

What about this compound? `Cc1cn([C@H]2C=C[C@@H](CO[P@@]3(=O)OCc4cc(C=O)cc(C(C)(C)C)c4O3)O2)c(=O)[nH]c1=O` 41

What about this compound? Cc1cn([C@H]2C=C[C@@H](CO)O2)c(=O)[nH]c1=O [STAVUDINE] 182

What about this compound? `Cc1cn([C@H]2C=C[C@@H](CO[P@@]3(=O)OCc4cc(C(OC(=O)C(C)C)OC(=O)C(C)C)cc(C(C)(C)C)c4O3)O2)c(=O)[nH]c1=O` 40

Reference source for all entries: ChEMBL document CHEMBL1142496
